We begin with a simple list: items and their reported IC50.
Target: DRB1*03:01 (Homo sapiens, UniProt P01903+P01911, A100K/A102G/A103R/A169T/F55Y/I96L/K41T/L162R/M171V/P40S/Q125H/Q178H/Q39Y/R42S/S66N/T106N/T262R/W38E/Y61H)
Sequence (P01903 26-254 limits assumed, other chains not shown): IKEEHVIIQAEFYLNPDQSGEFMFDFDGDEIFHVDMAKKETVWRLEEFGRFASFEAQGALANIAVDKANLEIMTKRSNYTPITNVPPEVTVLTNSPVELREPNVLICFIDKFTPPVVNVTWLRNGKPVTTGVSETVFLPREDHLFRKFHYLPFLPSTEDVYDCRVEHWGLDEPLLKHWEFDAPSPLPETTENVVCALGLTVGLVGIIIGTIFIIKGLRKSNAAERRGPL
Experiment: biochemical
Where a SMILES comes first, the peptide text is derived from it.

{"COMPOUND": "CC[C@H](C)[C@H](NC(=O)CNC(=O)[C@H](CC(=O)O)NC(=O)[C@H](CCCCN)NC(=O)[C@H](CC(N)=O)NC(=O)[C@H](C)NC(=O)CNC(=O)[C@H](Cc1ccc(O)cc1)NC(=O)[C@@H]1CCCN1C(=O)[C@@H](N)CC(C)C)C(=O)N[C@H](C(=O)N[C@@H](Cc1c[nH]c2ccccc12)C(=O)N[C@H](C(=O)N[C@@H](C)C(=O)N[C@H](C(=O)O)[C@@H](C)O)C(C)C)[C@@H](C)CC [Ncl_25] (H-LPYGANKDGIIWVAT-OH)", "IC50": "39.3 µM"}
{"COMPOUND": "CC(C)C[C@H](NC(=O)[C@H](Cc1ccc(O)cc1)NC(=O)[C@H](Cc1ccc(O)cc1)NC(=O)[C@H](Cc1ccccc1)NC(=O)[C@H](Cc1ccc(O)cc1)NC(=O)[C@H](Cc1c[nH]c2ccccc12)NC(=O)[C@H](CCCNC(=N)N)NC(=O)[C@@H]1CCCN1)C(=O)NCC(=O)N[C@H](C(=O)NCC(=O)N1CCC[C@H]1C(=O)N[C@@H](CCC(=O)O)C(=O)N[C@@H](C)C(=O)NCC(=O)O)[C@@H](C)O [Ncl_22] (H-PRWYFYYLGTGPEAG-OH)", "IC50": "> 40 µM"}
{"COMPOUND": "CC(C)C[C@H](NC(=O)[C@H](CC(N)=O)NC(=O)[C@H](CCCCN)NC(=O)[C@@H](NC(=O)[C@H](CCCNC(=N)N)NC(=O)[C@H](CO)NC(=O)[C@H](Cc1ccc(O)cc1)NC(=O)[C@@H](NC(=O)[C@H](Cc1ccc(O)cc1)NC(=O)[C@H](Cc1ccccc1)NC(=O)[C@H](CO)NC(=O)[C@@H]1CCCN1C(=O)[C@H](CCCCN)NC(=O)[C@@H](NC(=O)[C@@H](N)CC(C)C)C(C)C)C(C)C)C(C)C)C(=O)O [Env_11] (H-LVKPSFYVYSRVKNL-OH)", "IC50": "> 40 µM"}
{"COMPOUND": "CC[C@H](C)[C@H](NC(=O)[C@H](CCC(N)=O)NC(=O)[C@H](CC(=O)O)NC(=O)[C@@H](N)CC(=O)O)C(=O)NCC(=O)N[C@@H](Cc1ccc(O)cc1)C(=O)N[C@@H](Cc1ccc(O)cc1)C(=O)N[C@@H](CCCNC(=N)N)C(=O)N[C@@H](CCCNC(=N)N)C(=O)N[C@@H](C)C(=O)N[C@H](C(=O)N[C@@H](CCCNC(=N)N)C(=O)N[C@@H](CCCNC(=N)N)C(=O)N[C@H](C(=O)N[C@@H](CCCNC(=N)N)C(=O)O)[C@@H](C)CC)[C@@H](C)O [Ncl_P17] (H-DDQIGYYRRATRRIR-OH)", "IC50": "> 40 µM"}
{"COMPOUND": "CC(C)C[C@H](NC(=O)[C@H](C)NC(=O)[C@@H](NC(=O)[C@H](Cc1ccccc1)NC(=O)[C@H](Cc1c[nH]c2ccccc12)NC(=O)[C@@H](N)CO)[C@@H](C)O)C(=O)N[C@H](C(=O)N[C@@H](CCC(N)=O)C(=O)N[C@@H](Cc1c[nH]cn1)C(=O)NCC(=O)N[C@@H](CCCCN)C(=O)N[C@@H](CCC(=O)O)C(=O)N[C@@H](CC(=O)O)C(=O)N[C@@H](CC(C)C)C(=O)N[C@@H](CCCCN)C(=O)O)[C@@H](C)O [Ncl_11] (H-SWFTALTQHGKEDLK-OH)", "IC50": "> 40 µM"}

----------
Molecular target: DRB1*04:05 (Homo sapiens, UniProt P01903+P01911, A100R/A169T/D86S/F76Y/I96L/K127E/L162R/M171V/N62H/P40V/Q125Y/R42H/S133A/S149N/S66Y/V115G/V209L/W38E)
Assay: biochemical
Where a SMILES comes first, the peptide text is derived from it.

{"COMPOUND": "CC[C@H](C)[C@H](NC(=O)[C@H](Cc1c[nH]cn1)NC(=O)[C@H](CCCCN)NC(=O)[C@H](CC(N)=O)NC(=O)[C@H](CC(C)C)NC(=O)[C@H](CC(C)C)NC(=O)[C@@H](NC(=O)[C@@H](NC(=O)[C@H](CCC(N)=O)NC(=O)[C@H](CC(=O)O)NC(=O)[C@H](CCCCN)NC(=O)[C@@H](N)Cc1ccccc1)C(C)C)[C@@H](C)CC)C(=O)N[C@@H](CC(=O)O)C(=O)N[C@@H](C)C(=O)N[C@@H](Cc1ccc(O)cc1)C(=O)O [Ncl_70] (H-FKDQVILLNKHIDAY-OH)", "IC50 (nM)": 1320}

----------
Target: DRB1*04:01 (Homo sapiens, UniProt P01903+P01911, A100K/A169T/F76Y/I96L/K127E/L162R/M171V/N62H/P40V/Q125Y/R42H/S133A/S149N/S66Y/V115G/V209L/W38E)
Test: biochemical
Where a SMILES comes first, the peptide text is derived from it.

{"COMPOUND": "CC[C@H](C)[C@H](NC(=O)[C@H](CCCNC(=N)N)NC(=O)[C@H](CC(C)C)NC(=O)[C@H](Cc1c[nH]cn1)NC(=O)CNC(=O)[C@@H](N)CCCNC(=N)N)C(=O)N[C@@H](C)C(=O)NCC(=O)N[C@@H](Cc1c[nH]cn1)C(=O)N[C@@H](Cc1c[nH]cn1)C(=O)N[C@@H](CC(C)C)C(=O)NCC(=O)N[C@@H](CCCNC(=N)N)C(=O)N[C@@H](CS)C(=O)N[C@@H](CC(=O)O)C(=O)O [Mem_30] (H-RGHLRIAGHHLGRCD-OH)", "UNIT_OF_MEASURE": "µM", "IC50": 0.998}
{"COMPOUND": "CSCC[C@H](NC(=O)[C@H](CCCCN)NC(=O)[C@H](CO)NC(=O)[C@H](CCC(=O)O)NC(=O)[C@H](CC(C)C)NC(=O)[C@H](CCC(N)=O)NC(=O)[C@H](CC(N)=O)NC(=O)[C@H](CC(C)C)NC(=O)[C@H](CCCNC(=N)N)NC(=O)[C@H](CC(=O)O)NC(=O)[C@H](CC(C)C)NC(=O)[C@H](CC(C)C)NC(=O)[C@H](CC(C)C)NC(=O)[C@@H](N)CC(C)C)C(=O)N[C@@H](CO)C(=O)O [Ncl_45] (H-LLLLDRLNQLESKMS-OH)", "UNIT_OF_MEASURE": "µM", "IC50": 9.78}
{"COMPOUND": "CC[C@H](C)[C@H](NC(=O)[C@H](CCC(N)=O)NC(=O)[C@H](CC(=O)O)NC(=O)[C@@H](N)CC(=O)O)C(=O)NCC(=O)N[C@@H](Cc1ccc(O)cc1)C(=O)N[C@@H](Cc1ccc(O)cc1)C(=O)N[C@@H](CCCNC(=N)N)C(=O)N[C@@H](CCCNC(=N)N)C(=O)N[C@@H](C)C(=O)N[C@H](C(=O)N[C@@H](CCCNC(=N)N)C(=O)N[C@@H](CCCNC(=N)N)C(=O)N[C@H](C(=O)N[C@@H](CCCNC(=N)N)C(=O)O)[C@@H](C)CC)[C@@H](C)O [Ncl_P17] (H-DDQIGYYRRATRRIR-OH)", "UNIT_OF_MEASURE": "µM", "IC50": 8.42}
{"COMPOUND": "CC[C@H](C)[C@H](NC(=O)[C@H](CCCNC(=N)N)NC(=O)[C@H](CCCNC(=N)N)NC(=O)[C@@H](NC(=O)[C@H](C)NC(=O)[C@H](CCCNC(=N)N)NC(=O)[C@H](CCCNC(=N)N)NC(=O)[C@H](Cc1ccc(O)cc1)NC(=O)[C@@H](N)Cc1ccc(O)cc1)[C@@H](C)O)C(=O)N[C@@H](CCCNC(=N)N)C(=O)NCC(=O)NCC(=O)N[C@@H](CC(=O)O)C(=O)NCC(=O)N[C@@H](CCCCN)C(=O)O [Ncl_P18] (H-YYRRATRRIRGGDGK-OH)", "UNIT_OF_MEASURE": "µM", "IC50": 9.04}
{"COMPOUND": "CC(C)C[C@H](NC(=O)[C@H](C)NC(=O)[C@@H](NC(=O)[C@H](Cc1ccccc1)NC(=O)[C@H](Cc1c[nH]c2ccccc12)NC(=O)[C@@H](N)CO)[C@@H](C)O)C(=O)N[C@H](C(=O)N[C@@H](CCC(N)=O)C(=O)N[C@@H](Cc1c[nH]cn1)C(=O)NCC(=O)N[C@@H](CCCCN)C(=O)N[C@@H](CCC(=O)O)C(=O)N[C@@H](CC(=O)O)C(=O)N[C@@H](CC(C)C)C(=O)N[C@@H](CCCCN)C(=O)O)[C@@H](C)O [Ncl_11] (H-SWFTALTQHGKEDLK-OH)", "UNIT_OF_MEASURE": "µM", "IC50": 0.192}
